system: cytochrome P450 2E1 (CYP2E1) (Homo sapiens)
procedureText: CYP2E1 High Throughput Inhibitor Screening Kit, cDNA synthesized microsomal CYP2E1 (MFC to HFC)
experimentalContext: Table 3; minimum tested concentration (mg/L) × volume of human liver and intestine (3L)
Minimum Effective Dose: recorded values
Report as a plain number; the unit mg is understood.

{"columns": ["compound", "reportedEndpoint", "unitsSymbol", "recordedResult"],
 "data": [
  ["CC(Cc1ccc(O)c(O)c1)C(C)Cc1ccc(O)c(O)c1 (stereo not drawn) [Nordihydroguaiaretic acid]", "Minimum Effective Dose", "mg", 17],
  ["O=C(O)/C=C/c1ccccc1 [trans-Cinnamic acid]", "Minimum Effective Dose", "mg", 8]
]}

What Minimum Effective Dose value was documented for this compound, O=C(O)c1cc(O)c(O)c(O)c1 [gallic acid] ?
9

###

Test system: amidase
procedureText: Mouse liver microsomal amidase, isoniazid to isonicotinic acid
Format: biochemical
experimentalContext: 10 uM
reportedEndpoint: Amidase inhibition (%)
Write the value in % as a bare number.

Would you please look over these solved cases?
{"columns": ["compound", "unitsSymbol", "recordedResult"],
 "data": [
  ["COc1cc(/C=C/C(=O)CC(=O)/C=C/c2ccc(O)c(OC)c2)ccc1O", "%", 16.1],
  ["COc1ccc(-c2cc(=O)c3c(O)cc(O[C@@H]4O[C@H](CO[C@@H]5O[C@@H](C)[C@H](O)[C@@H](O)[C@H]5O)[C@@H](O)[C@H](O)[C@H]4O)cc3o2)cc1O", "%", "−0.7"]
]}

Record request: Amidase inhibition value, item "O=c1c(O)c(-c2cc(O)c(O)c(O)c2)oc2cc(O)cc(O)c12"
37.8

Name the recorded Amidase inhibition for Oc1cc(O)c2c(c1)O[C@H](c1cc(O)c(O)c(O)c1)[C@H](O)C2 [(−)-Epigallocatechin] .
−7.3

Quick one: Amidase inhibition for C=C(C)C1CC=C(C)CC1 (single isomer, unassigned; (+)) [(+)-Limonene] ?
3.2

# Amidase inhibition lookup, item Oc1cc(O)c2c(c1)O[C@H](c1ccc(O)c(O)c1)[C@@H](O)C2 [(+)-Catechin]
−11.8

Which Amidase inhibition is reported for this compound? "O=c1cc(-c2ccc(O)cc2)oc2cc(O)cc(O)c12"
13.2

Bench note: what Amidase inhibition did "COc1cc(-c2cc(=O)c3c(O)cc(O)cc3o2)ccc1O" show?
24.9

Endpoint output: Amidase inhibition of "O=c1c(O)c(-c2ccc(O)c(O)c2)oc2cc(O)cc(O)c12" . Value?
62.3

For the compound "O=C1C[C@@H](c2ccc(O[C@@H]3O[C@H](CO)[C@@H](O)[C@H](O)[C@H]3O)cc2)Oc2cc(O)ccc21" , what Amidase inhibition is on record?
−7.5

So what's the measured Amidase inhibition for this one? "O=c1cc(-c2ccc(O)cc2)oc2cc(O)c([C@@H]3O[C@H](CO)[C@@H](O)[C@H](O)[C@H]3O)c(O)c12"
5.8

What value of Amidase inhibition has been reported for the following compound? "CC1(C)CC[C@]2(C(=O)O)CC[C@]3(C)C(=CC[C@@H]4[C@@]5(C)CC[C@H](O)C(C)(C)[C@@H]5CC[C@]43C)[C@@H]2C1"
14.8

For the compound O=c1cc(-c2ccc(O)c(O)c2)oc2cc(O[C@@H]3O[C@H](CO)[C@@H](O)[C@H](O)[C@H]3O)cc(O)c12 [Luteolin-7-Glucoside] , what Amidase inhibition is on record?
8.7

GET /values?readout=Amidase inhibition&item= Oc1cc(O)c2c(c1)O[C@H](c1ccc(O)c(O)c1)[C@H](O)C2 [(−)-Epicatechin]
−4.8

Recorded Amidase inhibition of "O=C(O)[C@H]1O[C@@H](Oc2cc3oc(-c4ccccc4)cc(=O)c3c(O)c2O)[C@H](O)[C@@H](O)[C@@H]1O" , please.
15.2

###

system: human liver microsomal cytochrome P450 2E1 (CYP2E1) (Homo sapiens, UniProt P05181)
Sequence (P05181 whole entry): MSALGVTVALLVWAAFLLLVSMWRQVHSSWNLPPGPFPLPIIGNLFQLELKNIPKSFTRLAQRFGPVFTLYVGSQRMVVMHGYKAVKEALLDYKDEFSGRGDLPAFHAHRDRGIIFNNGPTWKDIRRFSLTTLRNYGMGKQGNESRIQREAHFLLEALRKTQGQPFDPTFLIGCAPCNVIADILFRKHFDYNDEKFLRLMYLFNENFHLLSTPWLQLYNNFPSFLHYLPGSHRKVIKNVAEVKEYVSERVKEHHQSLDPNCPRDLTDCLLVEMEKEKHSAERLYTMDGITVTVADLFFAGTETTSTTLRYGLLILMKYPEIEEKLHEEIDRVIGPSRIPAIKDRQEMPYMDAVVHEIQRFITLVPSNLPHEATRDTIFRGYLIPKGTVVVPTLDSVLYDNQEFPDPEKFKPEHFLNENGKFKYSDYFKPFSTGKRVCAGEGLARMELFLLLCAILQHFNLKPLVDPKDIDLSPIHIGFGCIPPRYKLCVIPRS
procedureText: Human liver microsomal CYP2E1, chlorzoxazone 6-hydroxylation
experimentalContext: Table 6; minimum tested concentration (mg/L) × volume of human liver and intestine (3 L)
The following molecules are listed with their measured Minimum Effective Dose values.
Could you give me the number in mg? Just the number is fine.

Here's what some known entries look like.
{"columns": ["molecule", "reportedEndpoint", "recordedResult"],
 "data": [
  ["O=c1c(O)c(-c2cc(O)c(O)c(O)c2)oc2cc(O)cc(O)c12", "Minimum Effective Dose", 17],
  ["O=c1c(O[C@@H]2O[C@H](CO)[C@H](O)[C@H](O)[C@H]2O)c(-c2ccc(O)c(O)c2)oc2cc(O)cc(O)c12 [Hyperoside]", "Minimum Effective Dose", 25],
  ["O=C(O)[C@H]1O[C@@H](Oc2cc3oc(-c4ccccc4)cc(=O)c3c(O)c2O)[C@H](O)[C@@H](O)[C@@H]1O", "Minimum Effective Dose", 24],
  ["O=c1cc(-c2ccc(O)c(O)c2)oc2cc(O[C@@H]3O[C@H](CO)[C@@H](O)[C@H](O)[C@H]3O)cc(O)c12 [Luteolin-7-Glucoside]", "Minimum Effective Dose", 24]
]}

For "O=c1c(-c2ccc(O)cc2)coc2cc(O)cc(O)c12" , what is its reported Minimum Effective Dose?
15

###

Minimum Effective Dose overview
system: UniProt:P05181
procedureText: CYP2E1 High Throughput Inhibitor Screening Kit, cDNA synthesized microsomal CYP2E1 (MFC to HFC)
experimentalContext: Table 3; minimum tested concentration (mg/L) × volume of human liver and intestine (3L)

# count of solved cases: 5
{"columns": ["compound", "Minimum Effective Dose"],
 "data": [
  ["Oc1cc(O)c2c(c1)O[C@H](c1ccc(O)c(O)c1)[C@H](O)C2 [(−)-Epicatechin]", "16 mg"],
  ["O=C(CCc1ccc(O)cc1)c1c(O)cc(O)cc1O", "15 mg"],
  ["CCCCC[C@H](O)CC(=O)CCc1ccc(O)c(OC)c1", "16 mg"],
  ["O=c1cc(-c2ccccc2)oc2ccc3ccccc3c12", "15 mg"],
  ["O=C(O)c1ccc(O)c(O)c1", "8 mg"]
]}

Record request: Minimum Effective Dose value, item "O=C(CCc1ccc(O)cc1)c1c(O)cc(O)cc1O[C@@H]1O[C@H](CO)[C@@H](O)[C@H](O)[C@H]1O"
24 mg

What does the record list as Minimum Effective Dose for Oc1cc(O)c2c(c1)O[C@H](c1ccc(O)c(O)c1)[C@@H](O)C2 [(+)-Catechin] ?
16 mg

Which value of Minimum Effective Dose has been reported for "O=c1ccc2ccc(O)cc2o1" in the records?
9 mg

Look up Minimum Effective Dose: O=C1c2c(O)cc(O)cc2O[C@H](c2ccc(O)c(O)c2)[C@H]1O [(+)-Taxifolin]
17 mg

###

system: CYP2E1 (Homo sapiens)
procedureText: Human liver microsomal CYP2E1, chlorzoxazone 6-hydroxylation;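 also: chlorzoxazone added as substrate, 6-hydroxychlorzoxazone formation quantified by LC/MS/MS after 30 min at 37 °C with NADP+ regenerating system, compared against solvent control without test sample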
experimentalContext: human, human liver microsomes, pH 7.4, probe Chlorzoxazone
The molecules listed here are annotated with their inhibition at 30 min, 33 µM.
I only need the number, in %, no unit after it.

Record excerpt, results attached:
{"columns": ["molecule", "system", "unitsSymbol", "inhibition at 30 min, 33 µM"],
 "data": [
  ["O=C1NS(=O)(=O)c2ccccc21", "CYP2E1 (Homo sapiens)", "%", 51.2],
  ["CCCCCCCCCCCCOS(=O)(=O)[O-].[Na+] [Sodium lauryl sulfate]", "CYP2E1 (Homo sapiens)", "%", 6.4],
  ["CCCOC(=O)c1ccc(O)cc1", "CYP2E1 (Homo sapiens)", "%", -17.2],
  ["C/C=C/C=C/C(=O)O", "CYP2E1 (Homo sapiens)", "%", 10.9],
  ["O=C(O)CC(O)(CC(=O)O)C(=O)O", "CYP2E1 (Homo sapiens)", "%", 15.5]
]}

Requested read-out inhibition at 30 min, 33 µM, target or system CYP2E1 (Homo sapiens), entry O.OC[C@H]1O[C@@H](O[C@H]2[C@H](O)[C@@H](O)C(O)O[C@@H]2CO)[C@H](O)[C@@H](O)[C@H]1O (stereo partly drawn) [Lactose monohydrate]
3.9

Kindly state the measured inhibition at 30 min, 33 µM obtained for "OC[C@@H](O)[C@@H](O)[C@H](O)[C@H](O)CO" with CYP2E1 (Homo sapiens).
51.2

Report inhibition at 30 min, 33 µM for "COC(=O)c1ccc(O)cc1" tested on CYP2E1 (Homo sapiens).
-14

I'm curious: which inhibition at 30 min, 33 µM was measured for "OC[C@H]1O[C@H](O[C@]2(CCl)O[C@H](CCl)[C@@H](O)[C@@H]2O)[C@H](O)[C@@H](O)[C@H]1Cl" tested on CYP2E1 (Homo sapiens)?
45.8

###

System: amidase
procedureText: Mouse liver microsomal amidase, isoniazid to isonicotinic acid
Type: biochemical
experimentalContext: 1 uM
reportedEndpoint: Amidase inhibition (%)
Reply with just the number (in %).

{"columns": ["compound", "Amidase inhibition / %"],
 "data": [
  ["O=C(O)[C@H]1O[C@@H](Oc2cc3oc(-c4ccccc4)cc(=O)c3c(O)c2O)[C@H](O)[C@@H](O)[C@@H]1O [Baicalin]", 2.1],
  ["COc1ccc(-c2cc(=O)c3c(O)cc(O[C@@H]4O[C@H](CO[C@@H]5O[C@@H](C)[C@H](O)[C@@H](O)[C@H]5O)[C@@H](O)[C@H](O)[C@H]4O)cc3o2)cc1O [Diosmin]", 0.3],
  ["O=C(O)c1ccc(O)c(O)c1 [Protocatechuic acid]", 11.5]
]}

# lookup: Amidase inhibition of O=c1c(O)c(-c2ccc(O)cc2O)oc2cc(O)cc(O)c12 [Morin]
−16.6

Give its Amidase inhibition value. Item: O=c1cc(-c2ccc(O)cc2)oc2cc(O)cc(O)c12 [Apigenin]
−10.2
